test system: Streptococcus sp. 'group B'; experiment: Antimicrobial activity against Group B Streptococcus by agar dilution method; assay type: functional
// reported MIC for each item listed
Kindly format the answer as number then unit.

MOLECULE | MIC
COc1cc(Cc2cnc(N)nc2N)cc(/C=C/C(=O)N2N=Cc3ccccc3C2c2cnc(N3CCOCC3)nc2)c1OC (stereo not given) | 0.06 µg/mL
COc1cc(Cc2cnc(N)nc2N)cc(/C=C/C(=O)N2N=Cc3ccccc3C2c2cnc(N(C)C)nc2)c1OC (stereo not given) | 0.06 µg/mL
CCCCCCCCCC(=O)N[C@@H](Cc1c[nH]c2ccccc12)C(=O)N[C@H](CC(N)=O)C(=O)N[C@@H](CC(=O)O)C(=O)N[C@@H]1C(=O)NCC(=O)N[C@@H](CCCN)C(=O)N[C@@H](CC(=O)O)C(=O)N[C@H](C)C(=O)N[C@@H](CC(=O)O)C(=O)NCC(=O)N[C@H](CO)C(=O)N[C@@H]([C@H](C)CC(=O)O)C(=O)N[C@@H](CC(=O)c2ccccc2N)C(=O)O[C@@H]1C | 0.015 µg/mL
COc1c(N2C[C@@H]3CCCN[C@@H]3C2)c(F)cc2c(=O)c(C(=O)O)cn(C3CC3)c12 [MOXIFLOXACIN] | 0.25 µg/mL

Let's switch to this molecule now.
Please report the recorded MIC for CC(=O)NC[C@H]1CN(c2ccc(N3CCOCC3)c(F)c2)C(=O)O1 [LINEZOLID] . 1 µg/mL

====

system: Staphylococcus aureus; test: Antimicrobial activity against methicillin-sensitive Staphylococcus aureus assessed as susceptible isolates by agar dilution method; format: functional
PROPERTY_MEASURED: Activity (%)
Your answer should be a plain number; it is taken to be in %.

COMPOUND | PROPERTY_MEASURED | UNIT_DESCRIPTOR | ASSAY_VALUE
COc1cc(Cc2cnc(N)nc2N)cc(/C=C/C(=O)N2N=Cc3ccccc3C2c2cnc(N(C)C)nc2)c1OC (stereo not given) | Activity | % | 100
CN(C)c1ccc(O)c2c1C[C@H]1C[C@H]3[C@H](N(C)C)C(O)=C(C(N)=O)C(=O)[C@@]3(O)C(O)=C1C2=O | Activity | % | 100
CC(=O)NC[C@H]1CN(c2ccc(N3CCOCC3)c(F)c2)C(=O)O1 | Activity | % | 100
COc1c(N2C[C@@H]3CCCN[C@@H]3C2)c(F)cc2c(=O)c(C(=O)O)cn(C3CC3)c12 | Activity | % | 92

Kindly consider the entry below.
Which measured Activity value corresponds to COc1cc(Cc2cnc(N)nc2N)cc(/C=C/C(=O)N2N=Cc3ccccc3C2c2cnc(N3CCOCC3)nc2)c1OC (stereo not given) ? 100

====

Reported MIC50 by item:
test system: Streptococcus sp. 'group A'; test: Antimicrobial activity against Group A Streptococcus by agar dilution method; format: functional
Express the result in µg/mL but write the number alone.

Sample answers from the record:
COMPOUND | PROPERTY_MEASURED | UNIT_DESCRIPTOR | ASSAY_VALUE
CCCCCCCCCC(=O)N[C@@H](Cc1c[nH]c2ccccc12)C(=O)N[C@H](CC(N)=O)C(=O)N[C@@H](CC(=O)O)C(=O)N[C@@H]1C(=O)NCC(=O)N[C@@H](CCCN)C(=O)N[C@@H](CC(=O)O)C(=O)N[C@H](C)C(=O)N[C@@H](CC(=O)O)C(=O)NCC(=O)N[C@H](CO)C(=O)N[C@@H]([C@H](C)CC(=O)O)C(=O)N[C@@H](CC(=O)c2ccccc2N)C(=O)O[C@@H]1C | MIC50 | µg/mL | 0.015
COc1ncc(C2c3ccccc3C=NN2C(=O)/C=C/c2cc(Cc3cnc(N)nc3N)cc(OC)c2OC)cn1 (stereo unspecified) | MIC50 | µg/mL | 0.06
CN(C)c1ccc(O)c2c1C[C@H]1C[C@H]3[C@H](N(C)C)C(O)=C(C(N)=O)C(=O)[C@@]3(O)C(O)=C1C2=O | MIC50 | µg/mL | 0.12
COc1cc(Cc2cnc(N)nc2N)cc(OC)c1OC | MIC50 | µg/mL | 0.5
COc1cc(Cc2cnc(N)nc2N)cc(/C=C/C(=O)N2N=Cc3ccccc3C2c2cnc(N3CCOCC3)nc2)c1OC (stereo unspecified) | MIC50 | µg/mL | 0.06

Fill in the blank: the reported MIC50 of "COc1c(N2C[C@@H]3CCCN[C@@H]3C2)c(F)cc2c(=O)c(C(=O)O)cn(C3CC3)c12" is ____. 0.25

====

tested on: Streptococcus sp. 'group B'; test: Antimicrobial activity against Group B Streptococcus by agar dilution method; type: functional
Items are presented alongside their recorded MIC50.
Give your result in µg/mL as a bare value.

COMPOUND | MIC50 [µg/mL]
COc1cc(Cc2cnc(N)nc2N)cc(OC)c1OC | 1
COc1c(N2C[C@@H]3CCCN[C@@H]3C2)c(F)cc2c(=O)c(C(=O)O)cn(C3CC3)c12 | 0.25
COc1ncc(C2c3ccccc3C=NN2C(=O)/C=C/c2cc(Cc3cnc(N)nc3N)cc(OC)c2OC)cn1 (configuration not stated) | 0.03
COc1cc(Cc2cnc(N)nc2N)cc(/C=C/C(=O)N2N=Cc3ccccc3C2c2cnc(N(C)C)nc2)c1OC (configuration not stated) | 0.06

I would be grateful if you could share the reported MIC50 for COc1cc(Cc2cnc(N)nc2N)cc(/C=C/C(=O)N2N=Cc3ccccc3C2c2cnc(N3CCOCC3)nc2)c1OC (configuration not stated) . 0.06

For the compound shown here, "CCCCCCCCCC(=O)N[C@@H](Cc1c[nH]c2ccccc12)C(=O)N[C@H](CC(N)=O)C(=O)N[C@@H](CC(=O)O)C(=O)N[C@@H]1C(=O)NCC(=O)N[C@@H](CCCN)C(=O)N[C@@H](CC(=O)O)C(=O)N[C@H](C)C(=O)N[C@@H](CC(=O)O)C(=O)NCC(=O)N[C@H](CO)C(=O)N[C@@H]([C@H](C)CC(=O)O)C(=O)N[C@@H](CC(=O)c2ccccc2N)C(=O)O[C@@H]1C" , give the reported MIC50. 0.015

Which MIC50 is listed for "CN(C)c1ccc(O)c2c1C[C@H]1C[C@H]3[C@H](N(C)C)C(O)=C(C(N)=O)C(=O)[C@@]3(O)C(O)=C1C2=O" ? 16

====

tested on: Staphylococcus aureus; assay: Antimicrobial activity against methicillin-sensitive Staphylococcus aureus by agar dilution method; format: functional
PROPERTY_MEASURED: MIC90
Don't forget the unit after the number, please.

// known answers, use as guide
COMPOUND | MIC90
COc1cc(Cc2cnc(N)nc2N)cc(OC)c1OC [TRIMETHOPRIM] | 2 µg/mL
COc1cc(Cc2cnc(N)nc2N)cc(/C=C/C(=O)N2N=Cc3ccccc3C2c2cnc(N3CCOCC3)nc2)c1OC (stereo not drawn) | 0.25 µg/mL

Entry COc1cc(Cc2cnc(N)nc2N)cc(/C=C/C(=O)N2N=Cc3ccccc3C2c2cnc(N(C)C)nc2)c1OC (stereo not drawn) has what MIC90? 0.03 µg/mL

Requested read-out: MIC90. Entry: COc1ncc(C2c3ccccc3C=NN2C(=O)/C=C/c2cc(Cc3cnc(N)nc3N)cc(OC)c2OC)cn1 (stereo not drawn) 0.03 µg/mL

====

experiment: Antimicrobial activity against Group G Streptococcus by agar dilution method; assay type: functional; conditions: Streptococcus sp. 'group G'
PROPERTY_MEASURED: MIC90 (µg/mL)
Record the value in µg/mL, omitting the unit from your answer.

Examples with their reported MIC90 follow.
MOLECULE | ASSAY_VALUE
CN[C@H](CC(C)C)C(=O)N[C@H]1C(=O)N[C@@H](CC(N)=O)C(=O)N[C@H]2C(=O)N[C@H]3C(=O)N[C@H](C(=O)N[C@H](C(=O)O)c4cc(O)cc(O)c4-c4cc3ccc4O)[C@H](O)c3ccc(c(Cl)c3)Oc3cc2cc(c3O[C@@H]2O[C@H](CO)[C@@H](O)[C@H](O)[C@H]2O[C@H]2C[C@](C)(N)[C@H](O)[C@H](C)O2)Oc2ccc(cc2Cl)[C@H]1O | 0.12
COc1cc(Cc2cnc(N)nc2N)cc(OC)c1OC | 1
CCCCCCCCCC(=O)N[C@@H](Cc1c[nH]c2ccccc12)C(=O)N[C@H](CC(N)=O)C(=O)N[C@@H](CC(=O)O)C(=O)N[C@@H]1C(=O)NCC(=O)N[C@@H](CCCN)C(=O)N[C@@H](CC(=O)O)C(=O)N[C@H](C)C(=O)N[C@@H](CC(=O)O)C(=O)NCC(=O)N[C@H](CO)C(=O)N[C@@H]([C@H](C)CC(=O)O)C(=O)N[C@@H](CC(=O)c2ccccc2N)C(=O)O[C@@H]1C | 0.03
COc1cc(Cc2cnc(N)nc2N)cc(/C=C/C(=O)N2N=Cc3ccccc3C2c2cnc(N(C)C)nc2)c1OC (centres undefined) | 0.06
COc1ncc(C2c3ccccc3C=NN2C(=O)/C=C/c2cc(Cc3cnc(N)nc3N)cc(OC)c2OC)cn1 (centres undefined) | 0.06
CN(C)c1ccc(O)c2c1C[C@H]1C[C@H]3[C@H](N(C)C)C(O)=C(C(N)=O)C(=O)[C@@]3(O)C(O)=C1C2=O | 16
COc1cc(Cc2cnc(N)nc2N)cc(/C=C/C(=O)N2N=Cc3ccccc3C2c2cnc(N3CCOCC3)nc2)c1OC (centres undefined) | 0.06
COc1c(N2C[C@@H]3CCCN[C@@H]3C2)c(F)cc2c(=O)c(C(=O)O)cn(C3CC3)c12 | 0.5

Then there is this molecule:
Given "CC(=O)NC[C@H]1CN(c2ccc(N3CCOCC3)c(F)c2)C(=O)O1" , state its recorded MIC90. 2
